Give progressively motile sperm for every item shown.
- Test system: human spermatozoa;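 note: pooled live human sperm from at least 3 donors, tracked by automated microscopy in 0.5 s time-lapse movies, compounds at 10 and 30 µM, versus median of 16 DMSO wells per plate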
- assay_comment: progressively motile sperm, percent change vs DMSO (non-capacitating); higher = more of the measured sperm population than DMSO, for viability, fewer PI-positive (dead) cells than DMSO; extreme values may be limits of the assay
- conditions: incubation time: 6h incubation, 9.99 µM
Where a name gives a salt, the structure may show the parent alone.
Answers are plain numbers, in %.

Solved entries:
INSERT INTO results (compound, experimental_target, measured_endpoint, unit_name, value_measured) VALUES
  ('CC1(C)CC=C(c2ccccc2)c2cc(/C=C/c3ccc(C(=O)O)cc3)ccc21', 'human spermatozoa', 'progressively motile sperm', '%', 6.74),
  ('Cn1c(=O)c2c(-c3ccccc3)n3c(c2n(C)c1=O)[C@H](c1ccc(Br)o1)Oc1ccc(C(=O)O)cc1-3', 'human spermatozoa', 'progressively motile sperm', '%', 37.8),
  ('COc1cc(SC)ccc1C(=O)N1CCC(Cc2ccccc2)CC1', 'human spermatozoa', 'progressively motile sperm', '%', 13.8);

Shifting focus to the compound that follows.
Item under review: CC(=O)N1CCC(C(=O)N(CCCN2CCN(Cc3ccc(F)cc3)CC2)c2ccc(C)c(Cl)c2)CC1 [B07 hydrochloride] . Reported progressively motile sperm? 13.9
